# ASSAYED SYSTEM: T1, human LAG-3 on cells (HEK293-hLAG-3 stable cell line) (human, UniProt P18627 23-525)
# T1 sequence: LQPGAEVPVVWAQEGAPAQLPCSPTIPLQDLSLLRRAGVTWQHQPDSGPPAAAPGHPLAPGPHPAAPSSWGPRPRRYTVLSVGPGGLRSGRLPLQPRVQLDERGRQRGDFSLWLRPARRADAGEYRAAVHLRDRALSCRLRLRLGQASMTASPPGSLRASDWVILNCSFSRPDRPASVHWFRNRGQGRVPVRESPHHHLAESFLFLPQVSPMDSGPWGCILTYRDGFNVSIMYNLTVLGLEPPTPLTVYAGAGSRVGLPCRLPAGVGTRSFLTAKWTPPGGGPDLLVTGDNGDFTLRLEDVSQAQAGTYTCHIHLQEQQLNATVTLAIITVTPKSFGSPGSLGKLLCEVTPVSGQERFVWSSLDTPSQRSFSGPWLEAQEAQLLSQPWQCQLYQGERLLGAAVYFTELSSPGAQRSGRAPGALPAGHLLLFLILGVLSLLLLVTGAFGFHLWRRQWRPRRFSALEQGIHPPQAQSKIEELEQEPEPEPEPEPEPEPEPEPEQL
# TEST SUMMARY: FACS, HEK293-hLAG-3, antibody 1.6 nM
RESULT TYPE: Mean fluorescence intensity

>>> meas_value("556F6B8-8 humanized antibody (antibody, V domains shown) VH: RVQLQESGPGLVKPSETLSLTCTVSGFSLIKYGVHWIRQPPGKGLEWIGVIWRGGITDYNAAFMSRVTISKDTSKSQVSLKLSSVTAADTAVYYCAKWDGPLAMDYWGQGTTVTVSS VL: DIVLTQSPSFLSASVGDRVTITCKASQDVGTTVAWYQQKPGKAPKLLIYWASTRHTGVPSRFSGSGSGTEFTLTISSLQPEDFATYYCQQYSSYPYTFGQGTKLEIK")
64
>>> meas_value("556F6B8-7 humanized antibody (antibody, V domains shown) VH: QVQLQESGPGLVKPSETLSLTCTVSGFSLIKYGVHWIRQPPGKGLEWIGVIWRGGITDYNAAFMSRVTISKDTSKSQVSLKLSSVTAADTAVYYCARWDGPLAMDYWGQGTTVTVSS VL: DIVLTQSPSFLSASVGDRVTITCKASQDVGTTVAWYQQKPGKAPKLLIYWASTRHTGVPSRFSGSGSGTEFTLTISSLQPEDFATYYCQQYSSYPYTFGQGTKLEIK")
79
>>> meas_value("556F6B8-12 humanized antibody (antibody, V domains shown) VH: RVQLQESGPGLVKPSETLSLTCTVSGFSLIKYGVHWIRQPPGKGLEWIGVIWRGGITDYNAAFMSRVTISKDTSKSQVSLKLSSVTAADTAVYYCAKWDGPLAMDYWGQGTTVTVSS VL: DIVLTQSPSFLSASVGDRVTITCKASQDVGTTVAWYQQKPGKSPKLLIYWASTRHTGVPSRFSGSGSGTEFTLTISSLQPEDFATYYCQQYSSYPYTFGQGTKLEIK")
70
>>> meas_value("556F6B8-9 humanized antibody (antibody, V domains shown) VH: QVQLQESGPGLVKPSETLSLTCTVSGGSISKYGVHWIRQPPGKGLEWIGVIWRGGITDYNAAFMSRVTISVDTSKNQFSLKLSSVTAADTAVYYCARWDGPLAMDYWGQGTTVTVSS VL: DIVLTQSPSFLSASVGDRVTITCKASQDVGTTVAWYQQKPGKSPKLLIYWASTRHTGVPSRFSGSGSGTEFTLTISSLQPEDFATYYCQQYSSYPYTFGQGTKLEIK")
9
>>> meas_value("556F6B8-1 humanized antibody (antibody, V domains shown) VH: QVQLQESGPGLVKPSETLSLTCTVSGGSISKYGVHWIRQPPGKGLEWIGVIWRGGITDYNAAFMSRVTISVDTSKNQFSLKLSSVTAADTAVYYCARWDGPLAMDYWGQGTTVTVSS VL: DIQLTQSPSFLSASVGDRVTITCKASQDVGTTVAWYQQKPGKAPKLLIYWASTRHTGVPSRFSGSGSGTEFTLTISSLQPEDFATYYCQQYSSYPYTFGQGTKLEIK")
9
>>> meas_value("556F6B8-10 humanized antibody (antibody, V domains shown) VH: QVQLQESGPGLVKPSETLSLTCTVSGFSIIKYGVHWIRQPPGKGLEWIGVIWRGGITDYNAAFMSRVTISVDTSKNQFSLKLSSVTAADTAVYYCARWDGPLAMDYWGQGTTVTVSS VL: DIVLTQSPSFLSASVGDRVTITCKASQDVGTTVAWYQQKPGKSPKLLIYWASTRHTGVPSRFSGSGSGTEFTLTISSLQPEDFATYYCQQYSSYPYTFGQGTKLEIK")
27
>>> meas_value("556F6B8-5 humanized antibody (antibody, V domains shown) VH: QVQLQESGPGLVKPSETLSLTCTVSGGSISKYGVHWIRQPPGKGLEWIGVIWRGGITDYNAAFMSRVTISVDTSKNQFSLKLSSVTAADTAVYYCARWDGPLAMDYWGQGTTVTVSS VL: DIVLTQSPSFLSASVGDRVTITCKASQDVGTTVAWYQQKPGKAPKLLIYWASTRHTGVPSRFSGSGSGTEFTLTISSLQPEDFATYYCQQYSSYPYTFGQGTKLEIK")
8

Input: Look up Mean fluorescence intensity for this binder: 556F6B8 mouse-human chimeric antibody (antibody, V domains shown, also called mAb123-556F6B8; 556F8B8) VH: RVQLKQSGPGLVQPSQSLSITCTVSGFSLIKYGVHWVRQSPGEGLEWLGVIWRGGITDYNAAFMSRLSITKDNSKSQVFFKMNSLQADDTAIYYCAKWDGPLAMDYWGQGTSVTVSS VL: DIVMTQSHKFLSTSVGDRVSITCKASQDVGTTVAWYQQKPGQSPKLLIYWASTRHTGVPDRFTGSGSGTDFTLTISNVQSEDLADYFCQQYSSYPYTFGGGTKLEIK
Output: 67
